System: CXCL10 induction
experiment-description: CXCL10 induction in SKBR3 cancer cell/PBMC and monocyte co-cultures (Example 33)
Format: cell-based
condition-info: Homo sapiens, Monocyte, read-out: EC50 - Monocyte (CXCL10 induction)
pEC50: −log10 of the molar value.
property-measured: pEC50

INSERT INTO assay_data (structure_smiles_string, experimental_system, result_number) VALUES
  ('CCn1nc(C)cc1C(=O)Nc1nc2cc(C(N)=O)cc(OC)c2n1C/C=C/Cn1c(NC(=O)c2cc(C)nn2CC)nc2cc(C(N)=O)cc(OCCCO)c21', 'CXCL10 induction', 7.51);

###

System: SKBR3 NucRed cells
experiment-description: Cancer cell killing activity in SKBR3 NucRed/PBMC or primary human monocyte co-cultures (Example 33)
Format: cell-based
condition-info: SK-BR-3, read-out: IC50 - PBMC (killing activity)
pIC50: −log10 of the molar value.
property-measured: pIC50

INSERT INTO results (compound, result_number) VALUES
  ('CCn1nc(C)cc1C(=O)Nc1nc2cc(C(N)=O)cc(OC)c2n1C/C=C/Cn1c(NC(=O)c2cc(C)nn2CC)nc2cc(C(N)=O)cc(OCCCO)c21 [Compound 1]', 8.02);
